Assay: CCTE_Harrill_HTTr_CellCount_MCF7: CCTE's Cell Proliferation Assessment for the High-Throughput Transcriptomics (HTTr) Platform, Harrill Lab (AID 2284012);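 further: count of Hoechst-stained nuclei per well by high-content imaging in MCF-7 cells; cells exposed to compound for six hours; intended direction is loss of nuclei count meaning fewer cells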
Inconclusive results are not listed. Activity calls are given as the source filed them. How the source made its calls: active means hit-call score of the fitted dose curve at least 0.9, where 1 is the maximum; inconclusive means response in the unintended direction; inactive means score below 0.9.
Parameter call: string, one of active, inactive

Record lookup: outcome of this test for O=[N+]([O-])c1ccc(Oc2ccc(Cl)cc2Cl)cc1 ?
inactive

Record lookup: outcome of this test for Clc1ccc(C(c2ccc(Cl)cc2)C(Cl)Cl)cc1 ?
inactive

Record lookup: outcome of this test for O=C(O)C1C2CCC(O2)C1C(=O)O (stereo unspecified) ?
inactive

Record lookup: outcome of this test for Nc1ccc(Oc2ccc(N)cc2)cc1 ?
inactive

Record lookup: outcome of this test for CN(C)[C@@H]1C(=O)C(C(N)=O)=C(O)[C@@]2(O)C(=O)C3=C(O)c4c(O)cccc4[C@@](C)(O)[C@H]3C[C@@H]12 ?
inactive

Record lookup: outcome of this test for C1=Cc2cccc3cccc1c23 ?
inactive

Record lookup: outcome of this test for O=P(OCCCl)(OCCCl)OCCCl ?
inactive

Record lookup: outcome of this test for O=[N+]([O-])C(Br)(CO)CO ?
inactive

Record lookup: outcome of this test for c1ccc(N=Nc2ccccc2)cc1 ?
inactive

Record lookup: outcome of this test for N#CC(Br)Br ?
inactive

Record lookup: outcome of this test for CC(C)(C)C(O)(CCc1ccc(Cl)cc1)Cn1cncn1 (stereo unspecified) ?
inactive

Record lookup: outcome of this test for CCCCCCCCOC(=O)c1ccc(C(=O)OCCCCCCCC)c(C(=O)OCCCCCCCC)c1 ?
inactive

Record lookup: outcome of this test for CCC[CH2][Sn]([Cl])([CH2]CCC)[CH2]CCC ?
active

Record lookup: outcome of this test for CCCCCCCCn1sccc1=O ?
active

Record lookup: outcome of this test for Nc1cc(Cl)cc(C(=O)O)c1Cl ?
inactive

Record lookup: outcome of this test for CCCCCCCCCCCCCN1CC(C)OC(C)C1 (stereo unspecified) ?
inactive

Record lookup: outcome of this test for Nc1ccc(N=Nc2ccccc2)cc1 ?
inactive

Record lookup: outcome of this test for Nc1ccc([N+](=O)[O-])cc1 ?
inactive

Record lookup: outcome of this test for CN(C)C(=O)Nc1ccc(Cl)cc1 ?
inactive

Record lookup: outcome of this test for CCN(CC)N=O ?
inactive

Record lookup: outcome of this test for O=C1CCCO1 ?
inactive
